# Tested on: HIV with mutations in the HIV protease sequence
# protocol_summary: Phenotypic fold resistance to protease inhibitors, protease mutations 84A/84L/84C/54M/54L/54V in a background (Examples 8-13)
# Assay type: cell-based, HIV-1
# experimental_parameters: Virco ID V052946; genotype 71V + 90M; vs mean IC50 of wild type laboratory HIV strain
Classify as follows. Reported Fold change in IC50 greater than or equal to 1 fold: true (1). Reported Fold change in IC50 below: false (0).

# count of solved cases: 4
CC(C)(C)NC(=O)[C@@H]1C[C@@H]2CCCC[C@@H]2CN1C[C@@H](O)[C@H](Cc1ccccc1)NC(=O)[C@H](CC(N)=O)NC(=O)c1ccc2ccccc2n1 [Saquinavir, saquinavir]    true (1)
CC(C)(C)NC(=O)[C@@H]1CN(Cc2cccnc2)CCN1C[C@@H](O)C[C@@H](Cc1ccccc1)C(=O)N[C@H]1c2ccccc2C[C@H]1O [Indinavir, indinavir]    false (0)
CC(C)c1nc(CN(C)C(=O)N[C@H](C(=O)N[C@@H](Cc2ccccc2)C[C@H](O)[C@H](Cc2ccccc2)NC(=O)OCc2cncs2)C(C)C)cs1 [Ritonavir, ritonavir]    true (1)
CC(C)CN(C[C@@H](O)[C@H](Cc1ccccc1)NC(=O)O[C@H]1CCOC1)S(=O)(=O)c1ccc(N)cc1 [Amprenavir, amprenavir]    false (0)

Query compound follows.
Check this compound for Fold change in IC50 at or above 1 fold: Cc1c(O)cccc1C(=O)N[C@@H](CSc1ccccc1)[C@H](O)CN1C[C@H]2CCCC[C@H]2C[C@H]1C(=O)NC(C)(C)C [Nelfinavir, nelfinavir]
true (1)
